Ref: the NIST ThermoML archive (doi:10.1021/acs.jced.9b00377)

Task for the reader: assign each of the following compounds its reported viscosity.
Details: 338.15 K; 100 kPa; Liquid; Falling or rolling sphere viscometry
± gives the expanded uncertainty stated by the source.

Inquiry: Would you mind telling me what viscosity value was observed for CCCCCC(=O)[O-].CN(C)C(=[NH2+])N(C)C [1,1,3,3-tetramethylguanidinium hexanoate] ?
Reply text: 69.3 ± 28 mPa·s

Inquiry: For CCCC(=O)[O-].CN(C)C(=[NH2+])N(C)C [1,1,3,3-tetramethylguanidinium butanoate] then?
Reply text: 88.1 ± 35 mPa·s

Inquiry: For CCCCCCC(=O)[O-].CN(C)C(=[NH2+])N(C)C [1,1,3,3-tetramethylguanidinium heptanoate] then?
Reply text: 71.6 ± 29 mPa·s

Inquiry: For CCCCC(=O)[O-].CN(C)C(=[NH2+])N(C)C [1,1,3,3-tetramethylguanidinium pentanoate] then?
Reply text: 67.7 ± 27 mPa·s

---
Inquiry: Would you mind telling me what viscosity value was observed for CCCCCCCC(=O)[O-].CN(C)C(=[NH2+])N(C)C [1,1,3,3-tetramethylguanidinium octanoate] ?
Reply text: 65 ± 26 mPa·s
